- systemName: periostin (Homo sapiens) (UniProt Q15063)
- Sequence: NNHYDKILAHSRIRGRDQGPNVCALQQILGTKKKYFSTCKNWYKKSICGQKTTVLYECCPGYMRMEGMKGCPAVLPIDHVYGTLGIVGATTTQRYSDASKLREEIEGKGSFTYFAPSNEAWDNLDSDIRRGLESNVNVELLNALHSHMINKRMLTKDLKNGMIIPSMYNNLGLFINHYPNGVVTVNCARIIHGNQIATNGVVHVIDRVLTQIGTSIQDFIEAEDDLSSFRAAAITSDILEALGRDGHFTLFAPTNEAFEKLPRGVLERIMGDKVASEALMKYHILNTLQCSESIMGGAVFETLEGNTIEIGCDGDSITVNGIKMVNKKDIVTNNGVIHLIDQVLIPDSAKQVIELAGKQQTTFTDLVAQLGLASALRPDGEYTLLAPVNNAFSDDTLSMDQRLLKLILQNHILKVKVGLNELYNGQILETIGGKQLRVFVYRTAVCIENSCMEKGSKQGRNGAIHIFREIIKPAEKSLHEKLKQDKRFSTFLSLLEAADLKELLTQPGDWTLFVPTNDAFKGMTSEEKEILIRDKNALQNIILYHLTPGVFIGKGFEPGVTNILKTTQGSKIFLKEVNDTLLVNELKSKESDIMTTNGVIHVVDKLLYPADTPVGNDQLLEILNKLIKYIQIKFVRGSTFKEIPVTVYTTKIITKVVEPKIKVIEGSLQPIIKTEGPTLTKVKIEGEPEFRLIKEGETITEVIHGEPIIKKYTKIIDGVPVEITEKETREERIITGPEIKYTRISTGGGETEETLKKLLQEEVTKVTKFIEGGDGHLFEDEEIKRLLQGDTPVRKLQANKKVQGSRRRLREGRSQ
- assayText: filter
- conditionContext: BndU at all n of the core [BndU at 20,27,28,31,35,39,42,45,46,55]; Bmax 72%; 200 mM HEPES, 510 mM NaCl, 25 mM KCl, 25 mM MgCl2, 37 C
experimentalReadout: pKd
The read-out pKd is expressed as -log10 of concentration in moles per litre.

[Q] Tell me the measured pKd of GATGTGAGTGTGTGACGAGTCACACGTTGATGACTGGATGGTAGTTAAAGAGGGTGGGGCAACAACAGAACAAGGAAAGG [clone 3 full length] , please.
[A] 9.27
